- System: CCRF-CEM leukemia
- protocol_details: NCI-60 one-dose screen, 48 h (100 = growth as untreated, 0 = no growth, -100 = all killed)
- run_conditions: 10 µM unless noted
The panel holds about 83,000 compounds, 20% with a hit somewhere; the sample as a whole holds those more often.
Strictly below 20% in growth: t. Otherwise: f.

>>> df
                      smiles_representation  class_name
0  O=C(/C=C/c1ccc(Cl)cc1)c1ccc(O)c(CN2CCN(c3cc4c(cc3F)c(=O)c(C(=O)O)cn4C3CC3)CC2)c1           f
1  O=C1C[C@H](N2C(=O)c3ccccc3S2(=O)=O)C2CO[C@@H]1O2           t
2  CCOC(=O)c1c2c(n3ccc(NC(=O)CCN4CCOCC4)cc13)C(=O)c1ncccc1C2=O           t
3     CCCCN(CC)CCCCCCCCCCN1CCCc2cc(OC)ccc21           t
4  CS(=O)(=O)c1ccc(-c2cnc3ccc(-c4cccc(S(C)(=O)=O)c4)nn23)cc1           t
5            O=c1cc(-c2ccccc2)[nH]c2ccccc12           t
6  CC[C@H](Nc1nc(N)nc(C)c1C#N)c1nc2cccc(NCc3ccc(C(=O)NO)cc3)c2c(=O)n1-c1ccccc1           t
7               NC(N)=Nc1ccc(S(=O)(=O)O)cc1           f

Switching to the query record.
Q: In plain terms, does O=C(COCc1c(-c2ccccc2)no[n+]1[O-])Nc1ccc(C(=O)/C=C/c2ccc3c(c2)OCO3)cc1 come in under 20% for growth?
Ans: f

###

- Tested on: MALME-3M melanoma
- protocol_details: NCI-60 one-dose screen, 48 h (100 = growth as untreated, 0 = no growth, -100 = all killed)
- run_conditions: 10 µM unless noted
This is part of a sample that, as a whole, favours compounds with a hit. Of some 83,000 tested, about 20% had one in any assay.
result_type: growth (%)
Express the result in % but write the number alone.

Here are 8 molecules together with their reported answers.
In [3]: df
Out[3]:
                      smiles_representation       study_system  units_of_measure  test_result
0  CN(C)C(=O)c1cc2cnc(Nc3ccc(-c4csc5c(=O)cc(N6CCNCC6)oc45)cc3)nc2n1C1CCCC1  MALME-3M melanoma                 %         60.2
1  CCOC(=O)c1ccc2c(c1)nc(/C=C/c1ccc(Cl)cc1)n2-c1cc(C(C)(C)C)[nH]n1  MALME-3M melanoma                 %         61.2
2  CCOC(=O)/C=C/C(=O)[C@H](CC(C)C)NC(=O)[C@H](Cc1ccccc1)NC(=O)OCc1ccccc1  MALME-3M melanoma                 %          103
3            COc1cccc(/C=C\C(=O)c2ccccc2)c1  MALME-3M melanoma                 %         83.4
4                     CCCCCC(=O)N(CCCC)CCCC  MALME-3M melanoma                 %         96.8
5  COc1ccc(C(=O)/C=C/c2c(Cl)c3c(c(OC)c2Cl)OCC(=O)N3)cc1  MALME-3M melanoma                 %         66.8
6  Cc1ccc2c(c1)O/C(=C\c1cccc(OCC(=O)c3ccccc3)c1)C2=O  MALME-3M melanoma                 %         94.7
7  CC[C@H](Nc1nc(N)nc(C)c1C#N)c1nc2cccc(NCc3ccc(C(=O)NO)cc3)c2c(=O)n1-c1ccccc1  MALME-3M melanoma                 %         21.5

Continue with the molecule presented below.
Q: Specify reported growth for the molecule shown: COc1ccc(/C=N\NC(=O)CN2CCN(c3cc4c(cc3F)c(=O)c(C(=O)N/N=C/c3ccc(OC)cc3)cn4C3CC3)CC2)cc1
Ans: 85.2
